- System: KPC-2 producing K. pneumoniae (ATCC BAA-1705)
- test_details: Synergistic broth micro-dilution MIC (checkerboard)
- Assay type: cell-based, Klebsiella pneumoniae
- experimental_context: BLI at 16 μg/mL; ATCC BAA-1705
property_measured: MIC of Ceftazidime in combination with BLI (µg/mL)

# chemical_smiles, scale_unit, censoring_sign, experimental_value
records = [
    ("C[C@]1(Cn2ccnn2)[C@H](C(=O)O)N2C(=O)C[C@H]2S1(=O)=O", "µg/mL", ">", 64),
    ("O=C(O)[C@H]1/C(=C/CO)O[C@@H]2CC(=O)N21", "µg/mL", "=", 64),
    ("CC1(C)[C@H](C(=O)O)N2C(=O)C[C@H]2S1(=O)=O", "µg/mL", ">", 64),
    ("C[n+]1ccn(C[C@@]2(C)[C@H](C(=O)[O-])N3C(=O)C[C@H]3S2(=O)=O)n1", "µg/mL", "=", 4),
]

====

- Tested on: KPC-2 producing K. pneumoniae (ATCC BAA-1705)
- test_details: Synergistic broth micro-dilution MIC (checkerboard)
- Type: cell-based, Klebsiella pneumoniae
- experimental_context: BLI at 4 μg/mL; ATCC BAA-1705
The following molecules are shown together with reported MIC of Ertapenem in combination with BLI values.

# chemical_smiles, censoring_sign, MIC of Ertapenem in combination with BLI (µg/mL)
data = [
    ("CC1(C)[C@H](C(=O)O)N2C(=O)C[C@H]2S1(=O)=O", ">", 64),
    ("C[n+]1ccn(C[C@@]2(C)[C@H](C(=O)[O-])N3C(=O)C[C@H]3S2(=O)=O)n1", "=", 32),
    ("C[C@]1(Cn2ccnn2)[C@H](C(=O)O)N2C(=O)C[C@H]2S1(=O)=O", ">", 64),
    ("O=C(O)[C@H]1/C(=C/CO)O[C@@H]2CC(=O)N21", "=", 64),
]

====

- Tested on: KPC-2 producing K. pneumoniae (ATCC BAA-1705)
- test_details: Synergistic broth micro-dilution MIC (checkerboard)
- Assay type: cell-based, Klebsiella pneumoniae
- experimental_context: BLI at 4 μg/mL; ATCC BAA-1705

# molecule, MIC of Imipenem in combination with BLI / µg/mL
measured = [
    ("Cc1cn(C[C@@]2(C)[C@H](C(=O)[O-])N3C(=O)C[C@H]3S2(=O)=O)c[n+]1C [Compound-13]", 2),
    ("C[n+]1ccn(C[C@@]2(C)[C@H](C(=O)[O-])N3C(=O)C[C@H]3S2(=O)=O)n1 [Compound-1]", 4),
    ("C[C@]1(Cn2ccnc2)[C@H](C(=O)O)N2C(=O)C[C@H]2S1(=O)=O [Compound-M]", 8),
    ("C[n+]1ccn(C[C@@]2(C)[C@H](C(=O)[O-])N3C(=O)C[C@H]3S2(=O)=O)c1 [Compound-12]", 4),
    ("C=CC[n+]1ccn(C[C@@]2(C)[C@H](C(=O)O)N3C(=O)C[C@H]3S2(=O)=O)n1 [Compound-4]", 4),
    ("C[C@]1(Cn2ccnn2)[C@H](C(=O)O)N2C(=O)C[C@H]2S1(=O)=O [Tazobactam]", 16),
]

====

- Tested on: KPC-3 expressing E. coli (J53 R6206)
- test_details: Synergistic broth micro-dilution MIC (checkerboard)
- Format: cell-based, Escherichia coli
- experimental_context: BLI at 8 μg/mL

# molecule, censoring_sign, MIC of Meropenem in combination with BLI (µg/mL)
rows = [
    ("C[n+]1ccn(C[C@@]2(C)[C@H](C(=O)[O-])N3C(=O)C[C@H]3S2(=O)=O)n1 [Compound-1]", "<", 0.06),
    ("CC1(C)[C@H](C(=O)O)N2C(=O)C[C@H]2S1(=O)=O [Sulbactam]", "=", 1),
    ("C[C@]1(Cn2ccnn2)[C@H](C(=O)O)N2C(=O)C[C@H]2S1(=O)=O [Tazobactam]", "=", 0.5),
    ("O=C(O)[C@H]1/C(=C/CO)O[C@@H]2CC(=O)N21 [Clavulanic acid]", "=", 0.5),
]
